Test system: Methicillin Resistant Staphylococcus aureus strain USA 300, NRS384
Assay: Minimum inhibitory concentration, broth micro-dilution (CLSI), S. aureus
Format: cell-based
Conditions: Staphylococcus aureus, MRSA / NRS 384 / USA300, 22 h, MRSA USA 300 NRS384; 35° C., 22 hours; read-out: MIC (μg/mL) S. aureus
I'd be grateful if you could share measured MIC for these entries.
One number for each entry, in µg/mL.

List the reported MIC of each compound below.
1. C[C@@H]1NC(=O)[C@@H](N(C)C(=O)[C@H](CCN)NC(=O)c2ccc3c(c2)CCCC3)c2ccc(OCCN)c(c2)-c2cc(ccc2OCCN)C[C@@H](C(=O)NCC#N)NC1=O
2. CCCCCCCCCCCCC(=O)N[C@@H](CCN)C(=O)N(C)[C@@H]1C(=O)N[C@@H](C)C(=O)N[C@H](C(=O)NCC#N)Cc2ccc(OCCN)c(c2)-c2cc1ccc2OCCN
3. CCCCCCCc1ccc(C(=O)N[C@@H](CCN)C(=O)N(C)[C@@H]2C(=O)N[C@@H](C)C(=O)N[C@H](C(=O)NCC#N)Cc3ccc(OCCN)c(c3)-c3cc2ccc3O)c(C)c1

1
0.023
0.078
